# STUDY_SYSTEM: C-C chemokine receptor type 10 (Homo sapiens) (UniProt P46092)
# Sequence (P46092 whole entry): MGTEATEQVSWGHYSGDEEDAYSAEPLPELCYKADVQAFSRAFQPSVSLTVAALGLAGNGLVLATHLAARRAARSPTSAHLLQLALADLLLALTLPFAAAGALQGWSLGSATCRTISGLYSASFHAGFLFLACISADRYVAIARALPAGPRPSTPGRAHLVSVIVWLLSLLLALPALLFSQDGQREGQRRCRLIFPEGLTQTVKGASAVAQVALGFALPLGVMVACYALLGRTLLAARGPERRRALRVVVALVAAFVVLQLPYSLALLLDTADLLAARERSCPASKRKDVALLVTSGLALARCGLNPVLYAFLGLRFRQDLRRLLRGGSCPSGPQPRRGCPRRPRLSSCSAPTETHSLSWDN
# METHOD_NOTES: Antagonist activity against human CCR10 expressed in human KJMGER8 cells assessed as inhibition of human recombinant CTACK-induced increase in intracellular calcium level at 100 nmol/L pre-incubated for 30 mins before human recombinant CTACK stimulation for 5 mins by FLIPR assay
# Format: functional, cell-based
Recorded inhibition by entry

Solved cases (4 shown):
> print(dat)
                                   compound  property.measured  value.measured
1  CCC(=O)NS(=O)(=O)c1cnn2c(Nc3ccc(C)cc3F)c(C(=O)N3CCC4(CC3)OCc3ccccc34)cnc12         inhibition          > 100%
2  Cc1cc(F)ccc1Nc1c(C(=O)N2CCC(c3ccccc3)CC2)cnc2c(S(=O)(=O)NC(=O)Nc3ccccc3)cnn12         inhibition           63.7%
3  CC(=O)NS(=O)(=O)c1cnn2c(Nc3ccc(F)cc3C)c(C(=O)N3CCC(c4ccccc4)CC3)cnc12         inhibition          > 100%
4  CCC(=O)NS(=O)(=O)c1cnn2c(Nc3ccc(F)cc3Cl)c(C(=O)N3CCC4(CC3)OCc3ccccc34)cnc12         inhibition          > 100%

For the compound shown here, `O=C(NC1CC1)NS(=O)(=O)c1cnn2c(Nc3ccc(F)cc3Cl)c(C(=O)N3CCC(c4ccc(F)cc4)CC3)cnc12` , give the reported inhibition.
> 100%

Same thing, different compound: `CC1(C(=O)NS(=O)(=O)c2cnn3c(Nc4cc(Cl)ccc4Cl)c(C(=O)N4CCC(c5ccc(F)cc5)CC4)cnc23)COC1`
> 100%

Again, but for `CCC(=O)NS(=O)(=O)c1cnn2c(Nc3ccc(C)cc3Cl)c(C(=O)N3CCC(c4ccc(F)cc4)CC3)cnc12`
98.3%

// same read-out, input: `O=C(NS(=O)(=O)c1cnn2c(NCc3ccccc3)c(C(=O)N3CCC(c4ccccc4)CC3)cnc12)C1CC1`
89.4%
